pKi reference
Molecular target: Signal transducer and activator of transcription 5B (Homo sapiens)
Sequence (P51692 whole entry): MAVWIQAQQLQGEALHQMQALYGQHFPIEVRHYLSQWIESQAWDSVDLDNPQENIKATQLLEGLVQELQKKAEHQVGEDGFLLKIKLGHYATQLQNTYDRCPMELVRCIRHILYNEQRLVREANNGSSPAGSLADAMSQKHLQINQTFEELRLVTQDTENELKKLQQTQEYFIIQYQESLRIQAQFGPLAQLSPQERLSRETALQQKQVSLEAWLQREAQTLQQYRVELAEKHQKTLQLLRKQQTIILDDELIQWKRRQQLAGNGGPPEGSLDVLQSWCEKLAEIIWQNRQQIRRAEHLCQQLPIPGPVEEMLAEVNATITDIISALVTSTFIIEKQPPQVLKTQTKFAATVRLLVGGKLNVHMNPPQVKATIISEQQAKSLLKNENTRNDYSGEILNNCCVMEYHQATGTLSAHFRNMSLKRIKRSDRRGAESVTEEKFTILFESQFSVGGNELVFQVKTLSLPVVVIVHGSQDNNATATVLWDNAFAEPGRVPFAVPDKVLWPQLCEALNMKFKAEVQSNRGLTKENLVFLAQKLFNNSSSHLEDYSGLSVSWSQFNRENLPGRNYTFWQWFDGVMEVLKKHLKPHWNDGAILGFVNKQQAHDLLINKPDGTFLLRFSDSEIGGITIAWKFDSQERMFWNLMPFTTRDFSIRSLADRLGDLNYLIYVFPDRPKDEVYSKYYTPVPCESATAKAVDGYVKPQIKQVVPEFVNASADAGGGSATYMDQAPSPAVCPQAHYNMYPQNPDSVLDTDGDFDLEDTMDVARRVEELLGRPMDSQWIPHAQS
Assay: Inhibition of STAT5B SH2 domain (unknown origin)-5-FAM-GpYLVLDKW interaction compound treated for 15 mins by fluorescent polarization assay
pKi: −log10 of the molar value.

Example results:
CHEMICAL STRUCTURE	pKi
Cc1ccc(CN(C(=O)CN(C)S(=O)(=O)c2c(F)c(F)c(F)c(F)c2F)c2ccc(C(=O)O)c(O)c2)cc1	< 4.22
Cc1cc(C)c(S(=O)(=O)N(C)CC(=O)N(Cc2c(F)c(F)c(F)c(F)c2F)c2ccc(C(=O)O)c(O)c2)c(C)c1	< 4.22
Cc1cc(C)c(S(=O)(=O)N(C)CC(=O)N(Cc2ccccc2)c2ccc(C(=O)O)c(O)c2)c(C)c1	< 4.22

[Q] Lab note: need pKi for `Cc1cc(C)c(S(=O)(=O)N(C)CC(=O)N(Cc2cc(C(C)(C)C)cc(C(C)(C)C)c2)c2ccc(C(=O)O)c(O)c2)c(C)c1` on Signal transducer and activator of transcription 5B (Homo sapiens), anyone have it?
[A] 5.32

[Q] Find the measured pKi: item `Cc1cc(C)c(S(=O)(=O)N(C)CC(=O)N(Cc2ccc3ccccc3c2)c2ccc(C(=O)O)c(O)c2)c(C)c1` , target or system Signal transducer and activator of transcription 5B (Homo sapiens).
[A] 5.18

[Q] Notebook entry, Signal transducer and activator of transcription 5B (Homo sapiens) assay: pKi of `CN(CC(=O)N(CC1CC1)c1ccc(C(=O)O)c(O)c1)S(=O)(=O)c1c(F)c(F)c(F)c(F)c1F` = ?
[A] < 4.22

[Q] Request: pKi, test system Signal transducer and activator of transcription 5B (Homo sapiens), entry `CN(CC(=O)N(Cc1ccc(F)cc1)c1ccc(C(=O)O)c(O)c1)S(=O)(=O)c1c(F)c(F)c(F)c(F)c1F`
[A] < 4.22

[Q] Identify the measured pKi of `Cc1cc(C)c(S(=O)(=O)N(C)CC(=O)N(Cc2cccs2)c2ccc(C(=O)O)c(O)c2)c(C)c1` for Signal transducer and activator of transcription 5B (Homo sapiens).
[A] < 4.22
